z-score reference
- assay.protocol: hepatitis C replication reporter changes, two-sided – Huh7 cells, luciferase reporter, HCV replication inhibitor project, primary screen (AID 1109);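 further: huh7 hepatoma cells harbouring a luciferase neomycin HCV replicon reporter; luciferase luminescence as measure of HCV replicon replication; test concentration not given here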
- condition.info: Huh7 HCV replicon luciferase reporter, 48 h; higher = more signal

The examples below pair each entry with its known result.
compound	z-score
COc1cc(CO)cc(I)c1O[C@H]1C=C(C(=O)NCCO)C[C@@H](N(C(=O)c2cc3ccccc3oc2=O)C2CCCCCC2)[C@@H]1O	-0.469
C=CC1c2cc(O)c(OC)cc2CCN1Cc1cccc(OC(F)(F)F)c1 (stereo unspecified)	-1.79
CCCC[C@H]1C[C@@H]1[C@@H]1N(P(=O)(c2ccccc2)c2ccccc2)C[C@@](O)(c2ccccc2)CC12CC2	-2.71
COCCOC(=O)N1C(=O)[C@@]2(c3ccccc31)[C@H](C(N)=O)[C@H]1C(=O)O[C@H](c3ccccc3)[C@H](c3ccccc3)N1[C@@H]2c1ccc(O)cc1	-0.328

q: Which value of z-score has been reported for `COC(=O)C(CC#Cc1ccc2c(c1)[C@]1(C(=O)N2)[C@H](c2ccccc2OCCO)N2[C@H](c3ccccc3)[C@H](c3ccccc3)OC(=O)[C@H]2[C@@H]1C(N)=O)C(=O)OC` in the records?
a: -2.95

q: Record: `COc1ccc(C(=O)Nc2ccc(CN3C(=O)[C@]4(O[C@H](CC(=O)N5CCC[C@H]5CO)[C@@H]([Si](C)(C)c5ccc(OC)cc5)[C@@H]4C)c4ccccc43)cc2)cc1`
a: -3.86

====

- assay.protocol: probe aShh binding to arrayed compounds – biochemical, biotinylated probe, 635/667 nm fluorescence, primary screen (AID 1114);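 further: probe is biotin-labelled aShh protein from a stem cell growth factor screen; measures binding of labelled protein to compounds printed on the slide; score merges feature fluorescence at 667 nm with signal-to-noise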
- condition.info: small-molecule microarray, higher = more signal
quantity.measured: composite z-score
Number only, please.

The examples below pair each entry with its known result.
compound	composite z-score
CCCNC(=O)[C@@H]1c2ccccc2C(=O)N(Cc2ccccc2OC)[C@H]1c1ccc(CO)cc1	-0.173
O=C1C2C=CC(C(O)C=Cc3ccc([N+](=O)[O-])cc3)N(Nc3ccccc3F)C2C(=O)N1c1ccccc1 (stereo not drawn)	0.166
COc1cc2c(cc1O)C=[N+](Cc1cc3c(cc1Br)OCO3)CC2	-0.16
O=C1C2C=CC(C(O)c3cc(C(F)(F)F)cc(C(F)(F)F)c3)N(Nc3ccccc3)C2C(=O)N1c1ccccc1 (stereo not drawn)	-0.358
COc1ccc([Si](C)(C)[C@H]2[C@H](CCn3cc([C@H](O)c4ccccc4)nn3)O[C@@]3(C(=O)N(C)c4ccccc43)[C@@H]2C)cc1	-0.0793

q: Which value of composite z-score has been reported for `NCCCCCNC(=O)[C@H]1C[C@H]2C(=O)N[C@@H](Cc3ccccc3)C(=O)N2[C@H]1c1cccc(OCCO)c1` in the records?
a: 0.246

q: Record: O=C1OCC=C[C@H]2OC34C=CCN(Cn5nnc6ccccc65)C(=O)[C@H]3N(CCCCCO)C(=O)[C@@H]4[C@@H]12 (stereo partly drawn)
a: -0.209

q: Record: `CC#CC(=O)Oc1ccc(Br)cc1C=CC(=O)OCC`
a: 0.42

====

composite z-score reference
- experimental.system: Focal adhesion kinase 1 (Homo sapiens)
- assay.protocol: PTK2 protein binding on printed compound slides – biochemical, small-molecule microarray, 635/667 nm fluorescence, BSA, DTT, primary screen (AID 1130);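 further: composite of spot emission at 667 nm and signal to noise over triplicate slides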
- condition.info: 635 nm fluorescence, higher = more signal

molecule	experimental.system	composite z-score
C=CC[C@]1(C(N)=O)N=C(c2ccc(OCCCO)cc2)O[C@H]1c1ccccc1	Focal adhesion kinase 1 (Homo sapiens)	0.784
COc1cc2c(cc1O)C(c1cccs1)N(Cc1cccc(OC(F)(F)F)c1)CC2 (configuration not stated)	Focal adhesion kinase 1 (Homo sapiens)	0.758
CC(C)(C)OC(=O)CC[C@@]1(C(=O)N2CCCCC2)N=C(c2ccc(OCCCO)cc2)O[C@@H]1c1ccccc1	Focal adhesion kinase 1 (Homo sapiens)	0.744
[N-]=[N+]=Nc1ccccc1[C@H]1OC(c2ccc(OCCCO)cc2)=N[C@@]1(CCS(=O)(=O)c1ccccc1)C(=O)NCc1ccccc1	Focal adhesion kinase 1 (Homo sapiens)	0.341
C[C@H]1C2[C@H](Cc3ccccc3)NC(=O)[C@]23C(=O)NCC(=O)N2CCC[C@H]2C(=O)NC/C=C/CCC/C=C/C3[C@@H]2O[C@]12C (some centres not stated)	Focal adhesion kinase 1 (Homo sapiens)	-0.502
COCCCNC(=O)[C@]1(Cc2ccccc2)N=C(c2ccc(OCCCO)cc2)O[C@@H]1c1ccccc1CN=[N+]=[N-]	Focal adhesion kinase 1 (Homo sapiens)	0.802

Then there is this molecule:
q: Which value of composite z-score has been reported for `COC(=O)[C@@]1(Cc2ccc(OC)cc2)[C@H]2c3cc(C(=O)N4CCCC4)n(Cc4nc5ccccc5[nH]4)c3C[C@H]2CN1C(=O)c1ccccc1` in the records?
a: 1.64

====

- experimental.system: NADPH oxidase 5 (Homo sapiens) (UniProt Q96PH1)
- Sequence (Q96PH1 whole entry, looked up): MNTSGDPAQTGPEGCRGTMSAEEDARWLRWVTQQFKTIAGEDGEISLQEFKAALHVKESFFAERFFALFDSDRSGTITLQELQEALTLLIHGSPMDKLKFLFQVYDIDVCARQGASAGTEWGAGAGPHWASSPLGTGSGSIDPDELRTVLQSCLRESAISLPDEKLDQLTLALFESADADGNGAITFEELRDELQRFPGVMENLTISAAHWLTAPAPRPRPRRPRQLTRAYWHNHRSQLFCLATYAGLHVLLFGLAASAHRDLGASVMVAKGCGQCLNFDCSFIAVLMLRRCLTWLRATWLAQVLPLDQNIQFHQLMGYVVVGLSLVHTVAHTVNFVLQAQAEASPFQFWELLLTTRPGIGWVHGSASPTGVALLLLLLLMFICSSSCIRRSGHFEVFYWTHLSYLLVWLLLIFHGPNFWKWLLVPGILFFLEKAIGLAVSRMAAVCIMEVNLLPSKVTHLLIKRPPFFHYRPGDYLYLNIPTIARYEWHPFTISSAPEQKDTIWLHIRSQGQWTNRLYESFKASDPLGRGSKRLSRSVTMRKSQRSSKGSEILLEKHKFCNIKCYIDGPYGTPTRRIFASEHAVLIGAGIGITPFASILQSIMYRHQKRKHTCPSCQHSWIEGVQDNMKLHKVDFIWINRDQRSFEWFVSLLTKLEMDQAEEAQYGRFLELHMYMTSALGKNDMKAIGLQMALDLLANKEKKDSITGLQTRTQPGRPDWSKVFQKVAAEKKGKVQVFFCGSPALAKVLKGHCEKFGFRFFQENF
- assay.protocol: compounds shifting NOX5 Amplex Red fluorescence – cell-based, HEK293-NOX5, NOX inhibitor project, primary screen (AID 1161)
- condition.info: HEK293-NOX5, ionomycin, 45 min, higher = more signal
z-score reference
Number only, please.

The examples below pair each entry with its known result.
molecule	reported
COc1cc2c(cc1O)C(c1cccs1)N(Cc1cccc(OC(F)(F)F)c1)CC2 (stereo not drawn)	-4.1
CC(C)(C)OC(=O)CC[C@]1(C(N)=O)N=C(c2ccc(OCCCO)cc2)O[C@H]1c1ccccc1	0.814

Then there is this molecule:
q: Under NADPH oxidase 5 (Homo sapiens) (UniProt Q96PH1): z-score value of `COc1ccc([Si](C)(C)[C@@H]2[C@@H](CCn3cc(CCO)nn3)O[C@]3(C(=O)N(Cc4cccc(N5C(=O)c6cccc7cccc5c67)c4)c4ccccc43)[C@H]2C)cc1` ?
a: 1.3

====

- experimental.system: NADPH oxidase 2 (Homo sapiens) (UniProt P04839)
- Sequence (P04839 whole entry, looked up): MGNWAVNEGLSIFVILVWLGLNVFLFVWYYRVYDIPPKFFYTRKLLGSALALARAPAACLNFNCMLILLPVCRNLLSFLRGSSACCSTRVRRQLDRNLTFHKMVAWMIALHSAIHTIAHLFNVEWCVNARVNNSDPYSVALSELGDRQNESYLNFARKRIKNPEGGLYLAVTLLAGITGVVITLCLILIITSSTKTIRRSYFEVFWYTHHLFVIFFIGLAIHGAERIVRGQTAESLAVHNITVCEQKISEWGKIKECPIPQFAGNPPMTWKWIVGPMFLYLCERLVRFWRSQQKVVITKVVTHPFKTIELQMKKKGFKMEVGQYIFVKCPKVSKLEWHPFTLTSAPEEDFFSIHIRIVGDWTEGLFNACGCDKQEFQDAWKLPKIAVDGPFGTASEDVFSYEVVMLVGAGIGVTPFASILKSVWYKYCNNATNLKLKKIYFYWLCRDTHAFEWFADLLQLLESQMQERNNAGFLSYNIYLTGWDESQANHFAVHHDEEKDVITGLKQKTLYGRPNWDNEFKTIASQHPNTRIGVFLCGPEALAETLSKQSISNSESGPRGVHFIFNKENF
- assay.protocol: compounds shifting NOX2 Amplex Red fluorescence – cell-based, HEK293-NOX2, PMA-stimulated, NOX inhibitor project, primary screen (AID 1159); further: test concentration not given here
- condition.info: 45 min, higher = more signal, called active from +8 up or from −8 down
z-score reference
Number only, please.

q: Which value of z-score has been reported for `NCCCCCCNC(=O)[C@H]1C[C@H]2C(=O)N[C@@H](Cc3ccccc3)C(=O)N2[C@H]1c1cccc(OCCO)c1` in the records?
a: 0.997

q: Record: CCCCN1CC=CC23O[C@@H]4C=CCOC(=O)[C@@H]4[C@H]2C(=O)N(CCCCCCO)[C@@H]3C1=O (some centres undefined)
a: 1.09

q: Record: `C=CCNC(=O)[C@@H]1[C@H]2C(=O)O[C@H](c3ccccc3)[C@H](c3ccccc3)N2[C@H](c2ccc(OCCO)cc2)[C@@]12C(=O)N(C(=O)OCCOC)c1ccc(C#CCNC(N)=O)cc12`
a: 0.827

q: Record: `Cc1ccc(S(=O)(=O)N2C[C@@H](C(=O)O)[C@H](Sc3ccccc3)C[C@H]2c2ccccc2)cc1`
a: 1.63

====

- experimental.system: Albumin (Bos taurus)
- assay.protocol: compounds binding labelled BSA control protein – biochemical, small-molecule microarray, Alexa647 label, 635/667 nm fluorescence, artefact control for SMM control protein annotation, profiling panel (AID 1118);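 further: score merges 667 nm emission intensity and signal-to-noise per printed compound spot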
- condition.info: BSA-A647 binding, fluorescence 635 nm, higher = more signal
composite z-score reference
Number only, please.

The examples below pair each entry with its known result.
compound	composite z-score
CCCC=C(CCC)[C@@H](NC(=O)OCC(C)C)c1ccccc1	0.923
Cc1ccc(C2C3C(=O)CC4C(=O)N(c5ccccc5)C(=O)C4C3CN2S(=O)(=O)c2ccc(C)cc2)cc1 (centres undefined)	0.684
C[N+](C)(C)CCCCCCNC(=O)[C@H]1C[C@H]2C(=O)N[C@@H](Cc3ccccc3)C(=O)N2[C@H]1c1cccc(OCCO)c1	-0.174

Then there is this compound:
q: Under Albumin (Bos taurus): composite z-score value of `CCOC(=O)C1=CC[C@@H](c2ccccc2)N(S(=O)(=O)c2ccc(C)cc2)[C@H]1c1ccc(CC)cc1` ?
a: 0.847

====

z-score reference
- assay.protocol: S6 kinase pathway phospho-S6 level changes – cell-based, A549, cytoblot, luminescence, serum-stimulated, primary screen (AID 1158);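 further: serum-stimulated A549 lung adenocarcinoma cells; signal is phosphorylated S6 detected by cytoblot immunostaining with HRP secondary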
- condition.info: 5 h, higher = more signal

1. CC[C@@H]1C=C(C(=O)O)[C@H](c2cccc3ccccc23)N1S(=O)(=O)c1ccc(C)cc1 -0.769

q: Which value of z-score has been reported for `COc1ccc(C(=O)Nc2cccc(CN3C(=O)[C@]4(O[C@H](CCn5cc(CCO)nn5)[C@@H]([Si](C)(C)c5ccc(OC)cc5)[C@@H]4C)c4ccccc43)c2)cc1` in the records?
a: -0.815

q: Record: `COc1cc2c(cc1O)C=[N+](Cc1cc3c(cc1Br)OCO3)CC2`
a: -0.273

q: Record: `CC(C)(C)OC(=O)CC[C@]1(C(N)=O)N=C(c2ccc(OCCCO)cc2)O[C@H]1c1ccccc1`
a: 0.0312

q: Record: `O=C(CS)NCCCCCNC(=O)[C@@H]1C[C@@H]2C(=O)NCC(=O)N2[C@@H]1c1ccc(O)cc1`
a: -0.259
